System: TTR
ASSAY_PROCEDURE: TTR editing in primary human hepatocytes electroporated with Spy Cas9 protein loaded with dgRNAs (Table 7)
Type: cell-based
CONDITION_DETAILS: dgRNA electroporated with Spy Cas9 protein (RNP)
So basically, if Avg % Edit comes in under 50% it's Fulfilled, and if it's 50% or more it's Not fulfilled.

INSERT INTO assay_data (seq_string, group) VALUES
  ('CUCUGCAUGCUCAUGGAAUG (tested as dual guide RNA, chemistry not given here) [CR003369]', 'Fulfilled');

Please examine the following record next.
IN: For this sequence, is Avg % Edit lower than 50%? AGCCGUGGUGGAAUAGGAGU (tested as dual guide RNA, chemistry not given here) [CR005299]
OUT: Fulfilled
